System: Plasma
Assay: Antioxidant activity in human plasma assessed as H2O2-induced lipid peroxidation at 10 uM after 30 mins by TBARS assay
Type: functional, cell-free
Entries and their inhibition values follow.
I only need the number, in %, no unit after it.

These solved cases illustrate the format of a correct answer.
COc1cc(/C=C/C(=O)CC(=O)/C=C/c2ccc(O)c(OC)c2)ccc1O : 19.2
O=C1/C=C/CCc2ccc(O[C@@H]3O[C@H](CO)[C@@H](O)[C@H](O)[C@H]3O)c(c2)-c2cc(ccc2O[C@@H]2OC[C@H](O)[C@H](O)[C@H]2O)CC1 : 12.6
COc1c(O)cc2cc1Oc1ccc(cc1)CC[C@@H](O)/C=C/C=C\2 : 55.8
COc1c2cc(c(OC)c1O)Oc1ccc(cc1)CC[C@@H](O)/C=C/C=C\2 : 37.6

Query block: Output inhibition of COc1c2cc(c(OC)c1O)Oc1ccc(cc1)[C@@H](O)CC(=O)CC/C=C/2
Result block: 2.2

Query block: Output inhibition of COc1c2cc(c(OC)c1O)Oc1ccc(cc1)CCC(=O)CC/C=C/2
Result block: 8.1

Query block: Output inhibition of COc1c2cc(c(OC)c1O)Oc1ccc(cc1)CCC(=O)CC/C=C\2
Result block: 64.3

###

Test system: Plasma
Test: Antioxidant activity in human plasma assessed as H2O2-induced lipid peroxidation at 10 uM after 30 mins by TBARS assay
Format: functional, cell-free
Entries and their inhibition values follow.
I only need the number, in %, no unit after it.

These solved cases illustrate the format of a correct answer.
COc1c2cc(c(OC)c1O)Oc1ccc(cc1)CCCC[C@@H](O)/C=C\2 : 20.8
COc1c2cc(c(OC)c1O)Oc1ccc(cc1)CCC(=O)C[C@@H](O)/C=C\2 : 12.1

// below: inhibition requested for another molecule
Query block: Output inhibition of COc1c2cc(c(OC)c1O)Oc1ccc(cc1)CC[C@@H](O)CC/C=C\2
Result block: 16.4
